Entries and their viability, T/C values follow.
# Tested on: KRAS PDC multicell spheroid viability
# Protocol notes: Anticancer human tumor 825966-067-R-J1-PDC patient-derived colon carcinoma cell line growth inhibition [KRAS2]
# Run parameters: second compound 0.1 µM; first compound 3.16 µM; hits give low values
# Excerpt: Multicellular complex tumor spheroid response to RAS pathway inhibitors in combination with a targeted agents in patient-derived cell lines with oncogenic KRAS variants from multiple cancer types A high-throughput screen of multi-cell type tumor spheroids was designed to identify active combinations of targeted small molecules and KRAS pathway inhibitors. […] Compounds. […] If the clinical Cmax for an agent had not been determined, the highest concentration tested was 10 microM. […]

| Compound | viability, T/C [%] |
| --- | --- |
| O=C(c1cc(Cc2n[nH]c(=O)c3ccccc23)ccc1F)N1CCN(C(=O)C2CC2)CC1 + CC1OCC2(CCN(c3cnc(Sc4ccnc(N)c4Cl)c(N)n3)CC2)C1N | 80.6 |
| CC(=O)OC12COC1CC(O)C1(C)C(=O)C(O)C3=C(C)C(OC(=O)C(O)C(NC(=O)OC(C)(C)C)c4ccccc4)CC(O)(C(OC(=O)c4ccccc4)C21)C3(C)C (stereo not given) + COc1cc2nc(C)nc(NC(C)c3cc(N)cc(C(F)(F)F)c3)c2cc1OC1CCOC1 | 34.5 |
| CC1COCCN1c1cc(-c2ccnn2C)c2ccnc(-c3ccn[nH]3)c2n1 (stereo not given) + C=CC(=O)N1CCN(c2nc(OCC3CCCN3C)nc3c2CCN(c2cccc4cccc(C)c24)C3)CC1CC#N | 49.5 |
| COC(=O)c1ccc2c(C(=Nc3ccc(N(C)C(=O)CN4CCN(C)CC4)cc3)c3ccccc3)c(O)[nH]c2c1 + C=CC(=O)N1CCN(c2nc(OCC3CCCN3C)nc3c2CCN(c2cccc4cccc(C)c24)C3)CC1CC#N | 0.21 |
| COC(=O)c1ccc2c(C(=Nc3ccc(N(C)C(=O)CN4CCN(C)CC4)cc3)c3ccccc3)c(O)[nH]c2c1 + CNCc1ccccc1-c1csc(C(C)Nc2nc(C)nc3cc(OC)c(OC)cc23)c1 | 0.18 |

###

# System: KRAS PDC multicell spheroid viability
# Protocol notes: Anticancer human tumor 825966-067-R-J1-PDC cell line growth inhibition [KRAS2];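 note: spheroids exposed to compounds for 7 days; 100% = DMSO vehicle control viability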
# Run parameters: second compound 1 µM; first compound 10 µM; hits give low values

| Compound | Units text | viability, T/C |
| --- | --- | --- |
| COc1cc2nccc(Oc3ccc(NC(=O)C4(C(=O)Nc5ccc(F)cc5)CC4)cc3)c2cc1OC + CC1OCC2(CCN(c3cnc(Sc4ccnc(N)c4Cl)c(N)n3)CC2)C1N | % | 5.65 |
| CC1(C)CCC(CN2CCN(c3ccc(C(=O)NS(=O)(=O)c4ccc(NCC5CCOCC5)c([N+](=O)[O-])c4)c(Oc4cnc5[nH]ccc5c4)c3)CC2)=C(c2ccc(Cl)cc2)C1 + COc1cc2nc(C)nc(NC(C)c3cc(N)cc(C(F)(F)F)c3)c2cc1OC1CCOC1 | % | 3.36 |
| CCNC(=O)CC1N=C(c2ccc(Cl)cc2)c2cc(OC)ccc2-n2c(C)nnc21 (stereo not given) + C=CC(=O)N1CCN(c2nc(OCC3CCCN3C)nc3c2CCN(c2cccc4cccc(C)c24)C3)CC1CC#N | % | 59.5 |
| COc1cc(Nc2ncc3c(n2)-c2ccc(Cl)cc2C(c2c(F)cccc2OC)=NC3)ccc1C(=O)O + C=CC(=O)N1CCN(c2nc(=O)n(-c3c(C)ccnc3C(C)C)c3nc(-c4c(O)cccc4F)c(F)cc23)C(C)C1 | % | 118 |
| Cn1nccc1Nc1nccc(-c2cc3c(s2)C(C)(C)N(CCN2CCOCC2)C3=O)n1 + COc1cc2nc(C)nc(NC(C)c3cc(N)cc(C(F)(F)F)c3)c2cc1OC1CCOC1 | % | 65.7 |
